tgt: Collagen alpha-1(I) chain (Homo sapiens)
protocol-notes: Inhibition of COL1A1 (unknown origin) expressed in human LX2 cells at 20 micromol/L incubated for 48 hrs by Bright-Glo luciferase assay relative to control
Assay type: cell-based
condition: dose 20.0 µmol/L
As shown below, each of these compounds has a reported inhibition value.
// return numeric value only (unit: %, not printed)

{"columns": ["smiles-representation", "observation-type", "measured-number"],
 "data": [
  ["COc1cc2c(cc1OC)-c1cc3ccc(OC)c(OCc4cccc(C)c4)c3c[n+]1CC2.[Br-]", "inhibition", 72.4]
]}

inhibition reading for COc1cc2c(cc1OC)-c1cc3ccc(OC)c(OC(=O)c4ccoc4C)c3c[n+]1CC2 : 9.91

inhibition reading for CCC(=O)Nc1c(OC)ccc2cc3[n+](cc12)CCc1cc(OC)c(OC)cc1-3 : 0

inhibition reading for CCOc1cc2c(cc1OC)-c1cc3ccc(OC)c(NCc4ccccc4)c3c[n+]1CC2 : 12.4

inhibition reading for COc1ccc(C(=O)Nc2c(OC)ccc3cc4[n+](cc23)CCc2cc(OC)c(OC)cc2-4)cc1 : 2.39

====

protocol-notes: Metabolic stability in CD-1 mouse liver microsomes assessed as intrinsic clearance at 1 micromol/L measured upto 60 mins in presence of NADPH by LC-MS/MS analysis
Type: ADME, Microsome
condition: 1 h, 1 µM, dose 1 µmol/L
observation-type: CLint,scaled (mL/min/kg)
// return numeric value only (unit: mL/min/kg, not printed)

CLint,scaled reading for COc1cc2c(cc1OC)-c1cc3ccc(OC)c(OCc4cccc(C)c4)c3c[n+]1CC2.[Br-] : 744

====

protocol-notes: Metabolic stability in CD-1 mouse liver microsomes assessed as microsomal intrinsic clearance at 1 micromol/L measured upto 60 mins in presence of NADPH by LC-MS/MS analysis
Type: ADME, Microsome
condition: dose 1 µmol/L, read-out: CLH
observation-type: microsomal CLint at 1 µM (µL/min/mg)
// return numeric value only (unit: µL/min/mg, not printed)

microsomal CLint at 1 µM reading for COc1cc2c(cc1OC)-c1cc3ccc(OC)c(OCc4cccc(C)c4)c3c[n+]1CC2.[Br-] : 188

====

tgt: Collagen alpha-1(I) chain (Homo sapiens) (UniProt P02452)
Sequence (P02452 whole entry): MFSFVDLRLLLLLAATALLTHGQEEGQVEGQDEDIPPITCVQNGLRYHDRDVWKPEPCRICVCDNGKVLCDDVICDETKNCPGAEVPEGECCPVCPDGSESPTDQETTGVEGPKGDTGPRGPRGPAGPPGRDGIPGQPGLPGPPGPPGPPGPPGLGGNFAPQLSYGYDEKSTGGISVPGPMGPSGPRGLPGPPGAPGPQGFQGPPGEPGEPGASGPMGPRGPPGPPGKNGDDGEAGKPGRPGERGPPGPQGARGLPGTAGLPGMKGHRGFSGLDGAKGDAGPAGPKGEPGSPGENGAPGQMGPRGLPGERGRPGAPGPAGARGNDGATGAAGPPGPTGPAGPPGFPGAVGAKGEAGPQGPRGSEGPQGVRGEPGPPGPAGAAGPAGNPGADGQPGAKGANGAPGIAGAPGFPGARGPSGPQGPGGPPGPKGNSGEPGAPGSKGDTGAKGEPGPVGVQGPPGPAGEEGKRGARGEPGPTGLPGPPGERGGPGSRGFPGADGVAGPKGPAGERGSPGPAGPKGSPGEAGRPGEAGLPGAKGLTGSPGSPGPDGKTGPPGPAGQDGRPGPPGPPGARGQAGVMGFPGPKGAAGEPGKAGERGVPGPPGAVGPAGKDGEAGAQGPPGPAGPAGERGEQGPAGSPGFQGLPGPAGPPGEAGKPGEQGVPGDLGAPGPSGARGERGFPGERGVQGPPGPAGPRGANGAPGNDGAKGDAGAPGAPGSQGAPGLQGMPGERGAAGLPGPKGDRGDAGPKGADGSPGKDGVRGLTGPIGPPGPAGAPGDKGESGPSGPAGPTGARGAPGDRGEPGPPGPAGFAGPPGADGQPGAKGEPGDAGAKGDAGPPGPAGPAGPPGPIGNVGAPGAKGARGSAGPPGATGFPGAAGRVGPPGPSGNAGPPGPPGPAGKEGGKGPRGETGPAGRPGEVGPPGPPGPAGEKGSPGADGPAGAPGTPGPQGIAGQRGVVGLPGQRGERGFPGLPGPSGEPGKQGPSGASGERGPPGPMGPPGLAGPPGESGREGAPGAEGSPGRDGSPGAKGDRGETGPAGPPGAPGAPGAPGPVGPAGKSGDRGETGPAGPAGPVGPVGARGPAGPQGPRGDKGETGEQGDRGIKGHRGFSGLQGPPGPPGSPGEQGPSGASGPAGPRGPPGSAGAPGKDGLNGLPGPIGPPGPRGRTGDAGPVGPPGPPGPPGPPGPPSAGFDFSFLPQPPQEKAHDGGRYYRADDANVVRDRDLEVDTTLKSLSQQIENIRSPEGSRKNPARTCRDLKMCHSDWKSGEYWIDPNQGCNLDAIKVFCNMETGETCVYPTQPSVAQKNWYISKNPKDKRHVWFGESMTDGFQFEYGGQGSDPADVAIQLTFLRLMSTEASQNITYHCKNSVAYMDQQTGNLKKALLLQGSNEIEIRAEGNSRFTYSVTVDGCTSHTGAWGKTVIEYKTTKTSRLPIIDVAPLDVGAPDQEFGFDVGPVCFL
protocol-notes: Inhibition of COL1A1 (unknown origin) expressed in human LX2 cells at 20 micromol/L incubated for 48 hrs by Bright-Glo luciferase assay relative to control
Assay type: cell-based
condition: dose 20.0 µmol/L
observation-type: inhibition (%)
// return numeric value only (unit: %, not printed)

inhibition reading for CCCCCCCCCOc1c(OC)ccc2cc3[n+](cc12)CCc1cc(OC)c(OC)cc1-3 : 99.9

inhibition reading for COC(=O)C(Oc1c(OC)ccc2cc3[n+](cc12)CCc1cc(OC)c(OC)cc1-3)c1ccccc1 (centres undefined) : 23.4

inhibition reading for COC(=O)/C=C/c1ccc(Cc2c3[n+](cc4c(OC)c(OC)ccc24)CCc2cc(OC)c(OC)cc2-3)cc1 : 0

inhibition reading for COc1cc2c(cc1OC)-c1cc3ccc(OC)c(OCCc4ccc(C(F)(F)F)cc4)c3c[n+]1CC2 : 56.3

inhibition reading for CCOc1cc2c(cc1OC)-c1cc3ccc(OC)c(NCc4ccc(C)cc4)c3c[n+]1CC2 : 36

inhibition reading for COc1cc2c(cc1OC)-c1c(Cc3ccccc3C)c3ccc(OC)c(OC)c3c[n+]1CC2 : 58.4

Source listed as ChEMBL document CHEMBL5385846.
